- System: HOP-92
- procedure.summary: NCI tumour cell line growth inhibition, 48 h
Activity calls are given as the source filed them. No stated cut-off is given here; in the data, active = GI50 up to about 1.1 µM and inactive = higher.
Outcome codes: t for active, f for inactive

{"molecule": "O=C1c2cccnc2S(=O)(=O)N1c1ccc([N+](=O)[O-])cc1", "label.value": "f"}
{"molecule": "CCOC(=O)/C=C/CCC(C)(C)COC(C)=O", "label.value": "f"}
{"molecule": "Cc1cc(N(CCC#N)CCC#N)ccc1C(=N/NC(=O)c1cc(Cl)ccc1O)/N=N/c1cccc(Cl)c1", "label.value": "f"}
{"molecule": "N#Cc1nc(C2SCCCS2)oc1N", "label.value": "f"}
{"molecule": "COc1cc2c3c(c4ccc(O)cc4c2cc1OC)[C@@H](O)[C@@H]1CCCN1C3", "label.value": "t"}
{"molecule": "CCCCCCCCCCCCCCCCCc1nnc(N)o1", "label.value": "f"}
{"molecule": "CCCc1nn(C)c(CCC(=O)N(Cc2ccccc2)Cc2ccccc2)c1CC", "label.value": "f"}
{"molecule": "O=C1CCCC1C(=O)Nc1ccc2ccccc2c1 (stereo not given)", "label.value": "f"}
{"molecule": "CCC(C)SC1SCC2C(=O)N(C)C3(CC3C)C(=O)OCC(NC(=O)c3nc4ccccc4cc3O)C(=O)NC(C)C(=O)N(C)C1C(=O)N(C)C1(CC1C)C(=O)OCC(NC(=O)c1nc3ccccc3cc1O)C(=O)NC(C)C(=O)N2C (stereo not given)", "label.value": "t"}
{"molecule": "S=P(N1CC1)(N1CC1)N1CC1", "label.value": "f"}
{"molecule": "C[C@H]1CC[C@H](NC(=O)N(CCCl)N=O)CC1", "label.value": "f"}
{"molecule": "CCC[S+]([O-])c1nc(COC(=O)NC)c(COC(=O)NC)n1C (stereo not given)", "label.value": "f"}
{"molecule": "O=C1Nc2ccccc2/C1=C/c1ccccc1", "label.value": "f"}
{"molecule": "Cc1nc2ccc(Cl)cc2c2c1CCN2c1ccccc1", "label.value": "f"}
{"molecule": "O=C1c2ccccc2C(=O)c2c(OCCOCCO)cccc21", "label.value": "f"}
{"molecule": "Cc1cn(C2CC(SCCO)C(CO)O2)c(=O)[nH]c1=O (stereo not given)", "label.value": "f"}
{"molecule": "CC(=O)n1nc(-c2[nH]c(C)c(-c3nn(C(C)=O)c(=S)o3)c2C)oc1=S", "label.value": "f"}
{"molecule": "O=C1NC(c2ccccc2)(c2ccccc2)C(=O)N1CCCCCCN1C(=O)NC(c2ccccc2)(c2ccccc2)C1=O", "label.value": "f"}
{"molecule": "COCn1cc(C2=C(C)C(=O)C(C)=C(C)C2=O)cn1", "label.value": "f"}
{"molecule": "Cc1ccccc1-n1c(C)nc(-c2ccccc2)cc1=O", "label.value": "f"}
{"molecule": "O=C1C(NCCc2ccc(O)c(O)c2)=CC(=O)c2ncccc21", "label.value": "f"}
{"molecule": "O=C1Nc2ccccc2/C1=N/NC(=S)Nc1ccccc1Cl", "label.value": "f"}
{"molecule": "COc1ccc(S(=O)(=O)Nc2ccc(-c3csc(N4C(=O)/C(=C/c5ccccc5[N+](=O)[O-])N=C4c4ccccc4)n3)cc2)cc1Cl", "label.value": "f"}
{"molecule": "Cc1ccc(OCC2OC(n3cnc4c(Cl)nc(Nc5cc(Cl)cc(Cl)c5)nc43)CC2Oc2ccc(C)cc2)cc1 (stereo not given)", "label.value": "f"}
{"molecule": "COc1cc([C@H]2Oc3c(OC)cc(CCCO)cc3[C@@H]2CO)ccc1O [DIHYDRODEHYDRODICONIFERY ALCOHOL]", "label.value": "f"}
{"molecule": "CCN(CC)c1ccc2c(c1)N=C1N=CC=CN1C2(c1ccc(N(C)C)cc1)c1ccc(N(C)C)cc1", "label.value": "f"}
{"molecule": "O=S1(=O)C(c2ccccc2)C(N2CCCCC2)C1C1CC2c3ccccc3C1c1ccccc12 (stereo not given)", "label.value": "f"}
{"molecule": "O=S(=O)(/N=S(/Nc1ccccc1)C(F)(F)Cl)c1ccccc1 (stereo not given)", "label.value": "f"}
{"molecule": "CC(=O)OC1COC(n2c(=S)n(-c3ccccc3)c(=O)c3ccccc32)C(OC(C)=O)C1OC(C)=O (stereo not given)", "label.value": "f"}
{"molecule": "N[C@H](C(=O)O)[C@@H]1CC(Br)=NO1", "label.value": "f"}
{"molecule": "Clc1cccc(C2ON=C(c3ccccc3)N2C23CC4CC(CC(C4)C2)C3)c1Cl (stereo not given)", "label.value": "f"}
{"molecule": "Cc1ccc(CC[PH](=O)CCc2ccc(C)nc2)cn1", "label.value": "f"}
{"molecule": "CC(C)CCC[C@@H](C)[C@H]1CC[C@H]2[C@@H]3CC[C@H]4C[C@H](N)CC[C@]4(C)[C@H]3CC[C@]12C", "label.value": "f"}
{"molecule": "C[C@H]1COC2(c3ccccc3)CCC(=O)N12 (stereo not given in full)", "label.value": "f"}
{"molecule": "COC(=O)C(=O)C(C(=O)C(=O)Nc1ccccc1C(N)=O)c1nc2ccc([N+](=O)[O-])cc2nc1O (stereo not given)", "label.value": "f"}
{"molecule": "O=C(/C=C/c1ccco1)c1cccc(C(=O)/C=C/c2ccco2)n1", "label.value": "f"}
{"molecule": "Cc1cc(Cl)ccc1Nc1nc2c(s1)C(=O)c1ccccc1C2=O", "label.value": "f"}
{"molecule": "O=C(O)CC(CC(=O)O)n1cccc1", "label.value": "f"}
{"molecule": "O=C1OC(c2ccccc2)=N/C1=C\\c1cc(Cl)ccc1Cl", "label.value": "f"}
{"molecule": "C=C(C)/C=C/C(O)[C@](C)(O)[C@H]1[C@H](O)C[C@@]2(C)[C@@H]3CCc4c(cc(OC5OC(CO)C(O)C(O)C5O)c(O)c4C)C3(C)C(=O)C[C@]12C (stereo not given in full)", "label.value": "f"}
